Tested on: erythropoietin
protocol.notes: Plasma EPO in mice after oral gavage
Type: in vivo, Swiss Webster mice
study.conditions: mouse plasma, oral gavage 6-60 mg/kg, six hours; mouse EPO ELISA kit (**)
metric: EPO (pg/mL)
One number for each entry, in pg/mL.

Solved entries (count: 3):
C#Cc1nc(C(=O)NCC(=O)O)c(O)c2ccsc12 [Compound M] ... 8.8
O=C(O)CNC(=O)c1nc(Cl)c2ccsc2c1O [Compound L] ... 82.7
O=C(O)CNC(=O)c1ncc2cc(Oc3ccc4c(c3)CCO4)ccc2c1O [Compound X] ... 41

Please look at the following compound next.
Tell me its EPO given O=C(O)CNC(=O)c1ncc2cc(Oc3ccc4c(c3)OCO4)ccc2c1O [Compound O] as the entry.
83.1

====

Tested on: VEGF
protocol.notes: Plasma VEGF in mice after intravenous injection
Type: in vivo, Swiss Webster mice
study.conditions: mouse plasma, 20 mg/kg i.v., four hours after injection
metric: VEGF
Could you write the number and then its unit?

A selection of reference data follows.
O=C(O)CNC(=O)c1ncc2cc(Oc3ccc4c(c3)CCO4)ccc2c1O ... 48 pg/mL
CC(NC(=O)c1ncc2cc(Oc3ccccc3)ccc2c1O)C(=O)O (stereo not drawn) ... 77.8 pg/mL
O=C(O)CNC(=O)c1nc(Br)c2cc(Br)sc2c1O ... 66 pg/mL
CCc1c(O)c(C(=O)NCC(=O)O)nc2cc(Cl)ccc12 ... 43 pg/mL
COc1cccc(Oc2cccc3c(O)c(C(=O)NCC(=O)O)nc(C#N)c23)c1 ... 27 pg/mL
Cc1nc(C(=O)NCC(=O)O)c(O)c2cc(-c3ccc(F)cc3)sc12 ... 45 pg/mL
Cc1nc2ccc(Oc3ccc4c(C#N)nc(C(=O)NCC(=O)O)c(O)c4c3)cc2o1 ... 59 pg/mL
N#Cc1nc(C(=O)NCC(=O)O)c(O)c2c(Oc3ccc(F)cc3)cccc12 ... 20 pg/mL

Kindly indicate its recorded VEGF. Item: O=C(O)CNC(=O)c1ncc2cc(Oc3ccc(F)cc3)ccc2c1O
86.5 pg/mL

====

Would you mind telling me the reported EPO Fold Increase of each entry?
Test system: erythropoietin (EPO)
protocol.notes: EPO expression in Kelly neuroblastoma cells
Format: cell-based
Description: The effect of compounds of the present invention on expression of cytoprotective and neuroprotective factors in neuroblastoma cells was evaluated as follows. […] Following an overnight incubation, the conditioned media was collected from cell cultures and analyzed for erythropoietin (EPO) and vascular endothelial growth factor (VEGF) expression using a QUANTIKINE immunoassay (R&D Systems, Inc., Minneapolis Minn.) according to the manufacturer's instructions.
Give bare numbers.

C#Cc1nc(C(=O)NCC(=O)O)c(O)c2ccsc12 ... 285
CCc1c(O)c(C(=O)NCC(=O)O)nc2cc(Cl)ccc12 ... 31.08
COc1ccc(Oc2ccc3c(O)c(C(=O)NCC(=O)O)ncc3c2)cc1 ... 10.5
O=C(O)CNC(=O)c1nc(Cl)c2ccsc2c1O ... 5.2

Could you tell me EPO Fold Increase for each of these compounds? They are listed below.
1. O=C(O)CNC(=O)c1nc(-c2ccoc2)c2ccsc2c1O
2. N#Cc1nc(C(=O)NCC(=O)O)c(O)c2sccc12
3. O=C(O)CNC(=O)c1ncc2cc(Sc3ccccc3)ccc2c1O

[17.02, 11.95, 9.0]

For every item in the list below, what is its measured EPO Fold Increase?
1. O=C(O)CNC(=O)c1ncc2cc(SC3CCCCC3)ccc2c1O
2. N#Cc1nc(C(=O)NCC(=O)O)c(O)c2cc(Oc3ccc4c(c3)OCO4)ccc12
3. O=C(O)CNC(=O)c1nc(Br)c2ccsc2c1O

[3.9, 13.28, 3.6]
